Value source: paper PMC6271241

# Target under test: CDK1/cyclin B
# Assay comment: CDK1/cyclin B kinase assay ([γ-33P] ATP, histone H1)
# Type: biochemical, starfish
# Cond: 15 µM ATP, Table 1
pIC50: −log10 of the molar value.
Measured quantity: pIC50

smiles_repr=CC[C@H](CO)Nc1nc(Nc2ccc(-c3cccnc3)nc2)c2ncn(C(C)C)c2n1 test_result=8.00

(I) CC[C@@H](CO)Nc1nc(Nc2cccc(-c3cccnc3)c2)c2ncn(C(C)C)c2n1
(II) CC(C)n1cnc2c(Nc3ccncc3)nc(Nc3ncccn3)nc21
(III) CC[C@@H](CO)Nc1nc(Nc2cccc(-c3ccccn3)c2)c2ncn(C(C)C)c2n1
Input line: Sequence the entries by pIC50, beginning with the highest number. Give the labels in the order requested.
Output line: I, III, II
(I: 6.70, III: 6.10, II: 5.03)

(1) CC[C@@H](CO)Nc1nc(Nc2ccc(-c3ccccn3)cc2)c2ncn(C(C)C)c2n1
(2) CC(C)n1cnc2c(Nc3cccnc3)nc(Nc3ncccn3)nc21
Input line: Of the two listed items, which has the higher pIC50? First: 1 Second: 2 The response must carry the label of the picked entry.
Output line: 1

###

# Target under test: CDK2/cyclin A (Homo sapiens, UniProt P24941)
# Assay comment: CDK2/cyclin A kinase assay ([γ-33P] ATP, histone H1)
# Cond: 15 µM ATP, Table 1
Measured quantity: IC50 (nM)

smiles_repr=CC(C)n1cnc2c(Nc3cncnc3)nc(Nc3cncnc3)nc21 test_result=200

(I) CC(C)n1cnc2c(Nc3cnccn3)nc(Nc3cnccn3)nc21
(II) CC[C@@H](CO)Nc1nc(Nc2ccc(-c3ccccn3)cc2)c2ncn(C(C)C)c2n1
Input line: Of the two listed items, which has the higher IC50? First: I Second: II The response must carry the label of the picked entry.
Output line: I

###

# Target under test: DYRK1A (Homo sapiens, UniProt Q13627)
# Assay comment: DYRK1A kinase assay (Woodtide)
# Cond: 15 µM ATP; Table 1
pIC50: −log10 of the molar value.
Measured quantity: pIC50

Example cases with answers are listed next.
smiles_repr=CC(C)n1cnc2c(Nc3ccc(Br)cc3)nc(Nc3ncccn3)nc21 target_under_test="DYRK1A (Homo sapiens, UniProt Q13627)" test_result=5.52
smiles_repr=CC(C)n1cnc2c(Nc3cccnc3)nc(Nc3ncccn3)nc21 target_under_test="DYRK1A (Homo sapiens, UniProt Q13627)" test_result=5.10

(A) CC(C)n1cnc2c(Nc3cnccn3)nc(Nc3cnccn3)nc21
(B) CC(C)n1cnc2c(Nc3ccccn3)nc(Nc3ncccn3)nc21
Input line: Of the two listed items, which has the higher pIC50? First: A Second: B The response must carry the label of the picked entry.
Output line: A

###

# Target under test: CDK1/cyclin B
# Assay comment: CDK1/cyclin B kinase assay ([γ-33P] ATP, histone H1)
# Type: biochemical, starfish
# Cond: Table A1; read-out: IC50 on HsCDKs HsCDK1
Measured quantity: IC50 (nM)

compound="CC(C)[C@H](CO)Nc1nc(Nc2cccc(Cl)c2)c2ncn(C(C)C)c2n1 [Compound 2a, purvalanol A, reference compound]" measured_quantity=IC50 units_of_measure=nM test_result=4

(I) CC[C@H](CO)Nc1nc(Nc2ccc(-c3cncnc3)cc2)c2ncn(C(C)C)c2n1 [Compound 21]
(II) CC[C@H](CO)Nc1nc(Nc2ccc(-c3cccnc3)nc2)c2ncn(C(C)C)c2n1 [Compound 10]
Input line: Of the two listed items, which has the higher IC50? First: I Second: II The response must carry the label of the picked entry.
Output line: I

###

# Target under test: CDK1/cyclin B
# Assay comment: CDK1/cyclin B kinase assay ([γ-33P] ATP, histone H1)
# Format: biochemical, starfish
# Cond: Table A1; read-out: IC50 on HsCDKs HsCDK1
Measured quantity: IC50 (nM)

molecule="CC[C@@H](CO)Nc1nc(Nc2cccc(-c3cccnc3)c2)c2ncn(C(C)C)c2n1 [Compound 12]" test_result=200

(a) CC(C)n1cnc2c(Nc3ccc(Br)cc3)nc(-c3cccnc3)nc21 [Compound 18]
(b) CC[C@@H](CO)Nc1nc(Nc2ccc(-c3ccccn3)cc2)c2ncn(C(C)C)c2n1 [Compound 13]
(c) CC[C@@H](CO)Nc1nc(Nc2cccc(-c3ccccn3)c2)c2ncn(C(C)C)c2n1 [Compound 11]
Input line: Put these in order: smallest IC50 first, largest last. Give the labels in the order requested.
Output line: b, a, c

###

# System: Pf7G8
# Assay comment: [3H]hypoxanthine incorporation growth assay, Pf7G8
# Format: cell-based, Plasmodium falciparum
# Cond: Plasmodium falciparum, read-out: IC50 on P. falciparum Strains Pf7G8
Measured quantity: pIC50
# pIC50: negative log10 of molar concentration; output just the value

Input line: Can you look up pIC50 on Pf7G8 for CC(C)[C@H](CO)Nc1nc(Nc2cccc(Cl)c2)c2ncn(C(C)C)c2n1 [Compound 2a, purvalanol A, reference compound] ?
Output line: 5.09

###

# Target under test: CK1δ/ε
# Assay comment: CK1δ/ε kinase assay (CKS peptide)
# Cond: read-out: IC50 CK1δ/ε; 15 µM ATP; Table 1
Measured quantity: IC50 (nM)

Example cases with answers are listed next.
smiles_repr=CC[C@@H](CO)Nc1nc(Nc2cccc(-c3ccccn3)c2)c2ncn(C(C)C)c2n1 units_of_measure=nM test_result=40
smiles_repr=CC(C)n1cnc2c(Nc3cnccn3)nc(Nc3cnccn3)nc21 units_of_measure=nM test_result=1100
smiles_repr=CC[C@H](CO)Nc1nc(Nc2ccc(-c3cccnc3)nc2)c2ncn(C(C)C)c2n1 units_of_measure=nM test_result=200
smiles_repr=CC[C@@H](CO)Nc1nc(Nc2cccc(-c3cccnc3)c2)c2ncn(C(C)C)c2n1 units_of_measure=nM test_result=200
smiles_repr=CC(C)n1cnc2c(Nc3ccc(Br)cc3)nc(Nc3ncccn3)nc21 units_of_measure=nM test_result=1000

(1) CC[C@H](CO)Nc1nc(Nc2cccc(-c3ccccn3)c2)c2ncn(C(C)C)c2n1
(2) CC(C)n1cnc2c(Nc3ccncc3)nc(Nc3ncccn3)nc21
Input line: Please choose the item with the lower IC50 value from this pair: 1 and 2 The response must carry the label of the picked entry.
Output line: 1
(1: 10 nM, 2: 2800 nM)

###

# Target under test: CDK5/p25 (Homo sapiens, UniProt Q00535)
# Construct: made in house
# Sequence (Q00535 whole entry): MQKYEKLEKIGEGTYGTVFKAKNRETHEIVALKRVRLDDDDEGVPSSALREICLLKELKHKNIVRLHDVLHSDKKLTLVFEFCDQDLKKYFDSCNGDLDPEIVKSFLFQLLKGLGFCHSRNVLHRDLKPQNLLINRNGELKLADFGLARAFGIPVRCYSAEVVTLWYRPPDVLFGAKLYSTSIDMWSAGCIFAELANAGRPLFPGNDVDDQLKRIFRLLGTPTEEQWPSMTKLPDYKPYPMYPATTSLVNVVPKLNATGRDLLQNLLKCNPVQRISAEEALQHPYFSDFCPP
# Sequence (Q15078 99-307 partner limits assumed): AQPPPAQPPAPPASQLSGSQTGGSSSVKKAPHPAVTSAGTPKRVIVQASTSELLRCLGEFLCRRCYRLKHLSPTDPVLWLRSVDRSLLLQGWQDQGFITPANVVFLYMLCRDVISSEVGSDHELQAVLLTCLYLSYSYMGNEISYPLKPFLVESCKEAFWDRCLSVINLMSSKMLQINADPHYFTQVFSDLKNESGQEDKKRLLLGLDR
# Assay comment: CDK5/p25 kinase assay ([γ-33P] ATP, histone H1)
# Format: biochemical
# Cond: CDK5/p25, 15 µM ATP; Table 1; read-out: IC50 CDK5
pIC50: −log10 of the molar value.
Measured quantity: pIC50

(I) CC[C@H](CO)Nc1nc(Nc2cccc(-c3ccccn3)c2)c2ncn(C(C)C)c2n1
(II) CC(C)n1cnc2c(Nc3ccncc3)nc(Nc3ncccn3)nc21
(III) CC(C)n1cnc2c(Nc3ccc(Br)cc3)nc(Nc3ncccn3)nc21
(IV) CC(C)n1cnc2c(Nc3cncnc3)nc(Nc3cncnc3)nc21
(V) CC(C)n1cnc2c(Nc3cccnc3)nc(Nc3ncccn3)nc21
Input line: Falling order of pIC50, please. Give the labels in the order requested.
Output line: I, IV, III, V, II
(I: 7.10, IV: 6.40, III: 6.00, V: 5.37, II: 5.15)

###

# Target under test: CDK5/p25 (Homo sapiens)
# Construct: made in house
# Assay comment: CDK5/p25 kinase assay ([γ-33P] ATP, histone H1)
# Assay type: biochemical
# Cond: Table A1; read-out: IC50 on HsCDKs HsCDK5
Measured quantity: IC50 (nM)

Example cases with answers are listed next.
smiles_repr=CC[C@H](CO)Nc1nc(Nc2ccc(-c3cncnc3)cc2)c2ncn(C(C)C)c2n1 test_result=60
smiles_repr=CC(C)n1cnc2c(Nc3ccc(Br)cc3)nc(-c3cccnc3)nc21 test_result=730
smiles_repr=CC(C)n1cnc2c(Nc3cccc(-c4cccnc4)c3)nc(Cl)nc21 test_result=50
smiles_repr=CC[C@@H](CO)Nc1nc(Nc2cccc(-c3ncccn3)c2)c2ncn(C(C)C)c2n1 test_result=500
smiles_repr=CC[C@H](CO)Nc1nc(Nc2ccc(-c3ccccn3)cc2)c2ncn(C(C)C)c2n1 test_result=30
smiles_repr=CC(C)n1cnc2c(Nc3ccc(Br)cc3)nc(-c3ccncc3)nc21 test_result=600

(1) CC[C@@H](CO)Nc1nc(Nc2ccc(-c3cncnc3)cc2)c2ncn(C(C)C)c2n1
(2) CC[C@@H](CO)Nc1nc(Nc2ccc(-c3ncccn3)cc2)c2ncn(C(C)C)c2n1
(3) CC[C@H](CO)Nc1nc(Nc2cccc(-c3cccnc3)c2)c2ncn(C(C)C)c2n1
Input line: Put these in order: smallest IC50 first, largest last. Give the labels in the order requested.
Output line: 3, 1, 2

###

# Target under test: CDK1/cyclin B
# Assay comment: CDK1/cyclin B kinase assay ([γ-33P] ATP, histone H1)
# Format: biochemical, starfish
# Cond: Table A1; read-out: IC50 on HsCDKs HsCDK1
pIC50: −log10 of the molar value.
Measured quantity: pIC50

Example cases with answers are listed next.
compound="CC(C)n1cnc2c(Nc3ccc(Br)cc3)nc(-c3ccncc3)nc21 [Compound 22]" target_under_test="CDK1/cyclin B" test_result=6.22
compound="CC[C@@H](CO)Nc1nc(Nc2ccc(-c3ncccn3)cc2)c2ncn(C(C)C)c2n1 [Compound 19]" target_under_test="CDK1/cyclin B" test_result=6.30
compound="CC(C)n1cnc2c(Nc3cccc(-c4cccnc4)c3)nc(Cl)nc21 [Compound 17]" target_under_test="CDK1/cyclin B" test_result=6.74
compound="CC[C@@H](CO)Nc1nc(Nc2ccc(-c3cncnc3)cc2)c2ncn(C(C)C)c2n1 [Compound 16]" target_under_test="CDK1/cyclin B" test_result=6.74

(a) CC[C@H](CO)Nc1nc(Nc2cccc(-c3cccnc3)c2)c2ncn(C(C)C)c2n1 [Compound 15]
(b) CC[C@H](CO)Nc1nc(Nc2ccc(-c3ccccn3)cc2)c2ncn(C(C)C)c2n1 [Compound 14]
(c) CC[C@@H](CO)Nc1nc(Nc2cccc(-c3ncccn3)c2)c2ncn(C(C)C)c2n1 [Compound 20]
(d) CC(C)n1cnc2c(Nc3cccnc3)nc(Nc3ncccn3)nc21 [Compound 4c]
Input line: Sequence the entries by pIC50, beginning with the highest number. Give the labels in the order requested.
Output line: b, a, c, d
(b: 7.30, a: 6.74, c: 6.15, d: 5.52)
